- Tested on: NCI-60 cancer cell lines
- protocol: NCI-60 cancer cell line drug screen (GI50, MGM)
- Type: cell-based, human
- reported.conditions: Homo sapiens, HOP-92, Non-Small Cell Lung Cancer, HOP-92; read-out: Antiproliferative Activities [GI50 (μM)]
Could you please report measured GI50 for the items listed next?

test_smiles=COc1cnc2c(c1)C(=O)c1c-2n(CCCNC(C)C)c(=O)c2cc(F)ccc12 observable=GI50 observed="0.28 µM"
test_smiles=COc1cc2c(cc1O)-c1c(c3ccc([N+](=O)[O-])cc3c(=O)n1CCCn1ccnc1)C2=O observable=GI50 observed="13.6 µM"
test_smiles=O=C1c2ccccc2-c2c1c1ccccc1c(=O)n2CCCNCCO observable=GI50 observed="0.15 µM"

Hi, could you look up GI50 for each item in my list?
1. CN(C)CCCn1c2c(c3cccnc3c1=O)C(=O)c1ccccc1-2
2. CNCCCn1c2c(c3ccc(Cl)cc3c1=O)C(=O)c1cc(OC)cnc1-2
3. COc1cc2c(cc1O)-c1c(c3ccc([N+](=O)[O-])cc3c(=O)n1CCCN)C2=O

Ans.
1. 1.42 µM
2. 1.19 µM
3. 1.34 µM

* * *

- Test system: NCI-60 cancer cell lines
- protocol: NCI-60 cancer cell line drug screen (GI50, MGM)
- Type: cell-based, human
- reported.conditions: Homo sapiens, OVCAR-5, Ovarian Cancer, OVCAR-5; read-out: Antiproliferative Activities [GI50 (μM)]
observable: GI50 (µM)
Numbers only, in µM.

# annotated cases, reported GI50 shown
molecule="CN(C)CCCn1c2c(c3ccc(N4CCNCC4)cc3c1=O)C(=O)c1ccccc1-2 [Compound 25]" observable=GI50 unit_abbrev=µM observed=2.12
molecule="CNCCCn1c2c(c3ccc([N+](=O)[O-])cc3c1=O)C(=O)c1cc(OC)cnc1-2 [Compound 10]" observable=GI50 unit_abbrev=µM observed=0.14
molecule="COc1cnc2c(c1)C(=O)c1c-2n(CCCNC(C)C)c(=O)c2cc(F)ccc12 [Compound 5]" observable=GI50 unit_abbrev=µM observed=0.28
molecule="COc1cnc2c(c1)C(=O)c1c-2n(CCCNCCN2CCOCC2)c(=O)c2cc([N+](=O)[O-])ccc12 [Compound 11]" observable=GI50 unit_abbrev=µM observed=0.45
molecule="COc1cnc2c(c1)C(=O)c1c-2n(CCCNC2=NCCS2)c(=O)c2cc([N+](=O)[O-])ccc12 [Compound 12]" observable=GI50 unit_abbrev=µM observed=1.04

Qu. Would you kindly share the measured GI50 for O=C1c2ccccc2-c2c1c1ccccc1c(=O)n2CCCNCCO [Compound 13] ?
Ans. 0.38

* * *

- Tested on: NCI-60 cancer cell lines
- protocol: NCI-60 cancer cell line drug screen (GI50, MGM)
- Assay type: cell-based, human
- reported.conditions: Homo sapiens, 786-0, Renal Cancer, 786-0; read-out: Antiproliferative Activities [GI50 (μM)]
Could you please report measured GI50 for the items listed next?
Answers are plain numbers, in µM.

Hi, could you look up GI50 for each item in my list?
1. CNCCCn1c2c(c3ccc(Cl)cc3c1=O)C(=O)c1cc(OC)cnc1-2
2. COc1cnc2c(c1)C(=O)c1c-2n(CCCNCCN2CCOCC2)c(=O)c2cc([N+](=O)[O-])ccc12
3. CN(C)CCCn1c2c(c3cccnc3c1=O)C(=O)c1ccccc1-2

Ans.
1: 0.32; 2: 0.22; 3: 1.16

Qu. Would you kindly share the measured GI50 for COc1cc2c(cc1O)-c1c(c3ccc([N+](=O)[O-])cc3c(=O)n1CCCN1CCOCC1)C2=O ?
Ans. 0.21

Data origin, for the record: patent US20210382058A1
